System: SF-268 CNS
EXPERIMENT_SUMMARY: NCI tumour cell line growth inhibition, 48 h
List of TGI values.

Previously resolved entries follow.
COMPOUND | TEST_TARGET | MEASURED_VALUE
Oc1cc(O)c2c(c1)O[C@H](c1ccc(O)c(O)c1)[C@@H](O)C2 | SF-268 CNS | > 100 µM
Clc1ccc(Nc2ncco2)cc1Cl | SF-268 CNS | > 10 µM
NC(N)=NN=c1c(=O)c2ccccc2c1=O | SF-268 CNS | 3.81 µM
COc1ccccc1N1CCN(CCCCNC(=O)c2ccc([N+](=O)[O-])o2)CC1 | SF-268 CNS | 35.4 µM
CC(C)C[S+]1C2=C([O-])CC(C)(C)CC2=Nc2ccccc21 (configuration not stated) | SF-268 CNS | > 100 µM
CCOC(=O)/C=C/n1c2ccccc2c(=O)c2cc(OC)ccc21 | SF-268 CNS | > 100 µM

TGI in this record for COC(=O)c1cc(-c2ccc3ccccc3c2)[nH]c(=O)c1C#N : > 100 µM

TGI in this record for CC[C@H](C)[C@H](NC(=O)N(CCC#N)CCN(CCN(C(=O)N[C@@H](Cc1ccccc1)C(=O)OC)c1ccccc1)C(=O)N[C@H](C(=O)OC)C(C)C)C(=O)OC : 44.4 µM

* * *

Test system: HCT-15 colon
EXPERIMENT_SUMMARY: NCI tumour cell line growth inhibition, 48 h
VALUE_TYPE: TGI

Previously resolved entries follow.
COMPOUND | TGI
COC(=O)C(C(=O)C(=O)Nc1ccc(C)cc1)c1nc2ccc([N+](=O)[O-])cc2[nH]c1=O (stereo not given) | > 100 µM
NC(CCSCC(F)(F)F)C(=O)O (stereo not given) | > 100 µM
Cc1sc2c(c1C)C(=O)c1cccn1-2 | > 100 µM
COc1ccc2c(c1)CC[C@@H]1[C@@H]2CC[C@]2(C)/C(=N/OCCN3CCCC3)CC[C@@H]12 | 2.65 µM
Cc1c(C)c2c(c(C)c1OC(=O)CCC(=O)[O-])CCC(C)(CCCCCCCCCCC[P+](c1ccccc1)(c1ccccc1)c1ccccc1)O2 (stereo not given) | 3.02 µM

TGI in this record for CCCCn1c(-c2ccccc2)cs/c1=N\N=C1C=C(C(C)(C)C)C(=O)C(C(C)(C)C)=C1 : > 100 µM

TGI in this record for Cc1ccccc1NC(=O)CC1C(=O)Nc2ccccc2S1=O (stereo not given) : > 100 µM

* * *

Test system: LOX IMVI melanoma
EXPERIMENT_SUMMARY: NCI tumour cell line growth inhibition, 48 h
VALUE_TYPE: GI50

Previously resolved entries follow.
COMPOUND | TEST_TARGET | MEASURED_VALUE
CCn1cnc(C[C@H](NC(=O)[C@H](CCCCNC(=O)Nc2cc(C(F)(F)F)cc(C(F)(F)F)c2)NC(=O)Nc2cc(C(F)(F)F)cc(C(F)(F)F)c2)C(=O)OC)c1 | LOX IMVI melanoma | 3.56 µM
C[C@H]1CCC/C=C/C2CC(OC(=O)CN(C)C)CC2C(OC(=O)CN(C)C)/C=C/C(=O)O1 (some centres undefined) | LOX IMVI melanoma | 1.16 µM
O=CC(OC(=O)c1ccccc1)C(OC(=O)c1ccccc1)C(COC(c1ccccc1)(c1ccccc1)c1ccccc1)OC(=O)c1ccccc1 (centres undefined) | LOX IMVI melanoma | 11 µM

Now examine the next entry.
GI50 in this record for C[C@@H](Nc1nc(N[C@H](C)C(F)(F)F)nc(-c2cccc(Cl)n2)n1)C(F)(F)F : 79.8 µM
